Consider the following sequences; for each one, report its one-nucleolus phenotype percent effect.
System: MCF10A
Test: one-nucleolus phenotype percent effect (relative to siNT 0% and siNOL11 100%); higher = more cells with one nucleolus (ribosome biogenesis inhibition)
Conditions: 20 nM; 72 h
One number for each entry, in %.

Sample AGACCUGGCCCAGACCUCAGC [hsa-miR-631] ; one-nucleolus phenotype percent effect observed: 24.7

Sample CGGGGUGGGUGAGGUCGGGC [hsa-miR-4651] ; one-nucleolus phenotype percent effect observed: 2.27

Sample GGCGGGUGCGGGGGUGG [hsa-miR-3656] ; one-nucleolus phenotype percent effect observed: -15.8

Sample UUUUGCAAUAUGUUCCUGAAUA [hsa-miR-450b-5p] ; one-nucleolus phenotype percent effect observed: -22.9

List reported one-nucleolus phenotype percent effect for each of these sequences:
1. UGUCAGUGACUCCUGCCCCUUGGU [hsa-miR-4697-3p]
2. CGGGGCCAUGGAGCAGCCUGUGU [hsa-miR-6762-5p]
3. UCUGAGGCCUGCCUCUCCCCA [hsa-miR-4649-3p]
4. GUGUCUGGGCGGACAGCUGC [hsa-miR-1231]
5. AUCACAUUGCCAGUGAUUACCC [hsa-miR-23c]
6. CAAAAACUGCAGUUACUUUUGU [hsa-miR-548am-3p]
7. UCUGAAAGAGCAGUUGGUGUU [hsa-miR-4766-5p]

1: -7.45; 2: -11.4; 3: 23.9; 4: 62.4; 5: 2.08; 6: -23.3; 7: -18.9

List reported one-nucleolus phenotype percent effect for each of these sequences:
1. UCCCCUUCUGCAGGCCUGCUGG [hsa-miR-3127-3p]
2. UAUGUAACAUGGUCCACUAACU [hsa-miR-379-3p]
3. ACGGGCAGGGCAGUGCACCCUG [hsa-miR-7112-5p]
4. UCUAGAAAUGCAUGACCCACC [hsa-miR-6508-5p]
5. AAAGGUAAUUGCAGUUUUUCCC [hsa-miR-570-5p]
6. ACAGGCAGGAUUGGGGAA [hsa-miR-4514]

[-24.5, -12, 12.5, -15.2, -30.8, 32.3]
